Target: KRAS(G12D) (Homo sapiens, UniProt P01116, G12D)
Assay: cell-based
Type: cell-based
Parameters: Cell lines SW1990 and GP2D that express KRAS(G12D); host or cells: SW1990
Settings: SW1990, read-out: WB data SW1990 DMax
Description: Cell lines were cultured according to ATCC, JCRB and Sigma Aldrich recommendations. Cells were then washed with cold PBS, aspirated and cold RIPA buffer containing a protease/phosphatase inhibitor cocktail was added to lyse cells. After centrifugation, the total protein concentrations of cell lysates were determined using the BCA protein assay. […] Fluorescence imaging and quantitation was performed using a LI-COR Odyssey. Results was analyzed using GraphPad Prism 7 software. […]
Sequence (P01116 1-188 isoform P01116-2 G12D): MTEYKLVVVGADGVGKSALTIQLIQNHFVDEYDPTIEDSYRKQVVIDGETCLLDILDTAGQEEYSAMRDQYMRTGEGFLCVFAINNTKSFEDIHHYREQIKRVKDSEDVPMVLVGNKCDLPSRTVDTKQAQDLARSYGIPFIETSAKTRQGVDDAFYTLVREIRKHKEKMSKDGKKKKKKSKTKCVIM
observedProperty: Dmax

{"compound": "C#Cc1cccc2cc(O)cc(-c3ncc4c(N5CC6CCC(C5)N6)nc(OCC5(CN6CCN(CC7CCN(CC(=O)N[C@@H](C(=O)N8C[C@@H](O)C[C@@H]8C(=O)NCc8ccc(-c9scnc9C)cc8)C(C)(C)C)CC7)CC6)CC5)nc4c3F)c12", "obsValue": "> 50%"}
{"compound": "C#Cc1cccc2cc(O)cc(-c3ncc4c(N5CC6CCC(C5)N6C(=O)C(F)(F)F)nc(OCC5(CN6CCN(CC7CCN(c8ccc9c(c8)CN(C8CCC(=O)NC8=O)C9=O)CC7)CC6)CC5)nc4c3F)c12 (stereo not shown)", "obsValue": "10 to 50%"}
{"compound": "C#Cc1c(F)ccc2cc(O)cc(-c3nc(OC)c4c(N5CC6CCC(C5)N6)nc(OCC5(CN6CCN(C7CCN(c8ccc9c(c8)CN(C8CCC(=O)NC8=O)C9=O)CC7)CC6)CC5)nc4c3F)c12 (stereo not shown)", "obsValue": "> 50%"}
{"compound": "C#Cc1c(F)ccc2cc(O)cc(-c3ncc4c(N5CC6CCC(C5)N6)nc(OCC5(CN6CCN(CC7CCN(c8ccc9c(=O)n(C%10CCC(=O)NC%10=O)ncc9c8)CC7)CC6)CC5)nc4c3F)c12 (stereo not shown)", "obsValue": "10 to 50%"}

---

Target: KRAS(G12D) (Homo sapiens, UniProt P01116, G12D)
Test: KRAS Western Blot Protein Degradation Assay, GP2D
Assay type: cell-based
Parameters: Cell lines SW1990 and GP2D that express KRAS(G12D); host or cells: GP2D
Conditions: GP2d, read-out: WB data GP2D DMax
Experimental: […] Cell lines SW1990 and GP2D that express KRAS(G12D), LU65A that expresses KRAS(G12C), and NCIH727 that expresses KRAS(G12V) were seeded in 6- or 12-well tissue culture plates, and after 1 hr, test compounds were added at various concentrations and incubated at 37° C./5% CO2 for 24 hr. […] After centrifugation, the total protein concentrations of cell lysates were determined using the BCA protein assay. […] Fluorescence imaging and quantitation was performed using a LI-COR Odyssey. […]
Sequence (P01116 1-185 isoform P01116-2 G12D limits assumed): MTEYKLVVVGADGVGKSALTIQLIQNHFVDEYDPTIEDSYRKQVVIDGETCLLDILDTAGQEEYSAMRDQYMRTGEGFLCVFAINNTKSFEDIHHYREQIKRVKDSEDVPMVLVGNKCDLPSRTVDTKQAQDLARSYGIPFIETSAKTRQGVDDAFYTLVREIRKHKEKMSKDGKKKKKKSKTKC
observedProperty: Dmax

{"compound": "O=CO.[2H]C([2H])([2H])Oc1nc(-c2cc(O)cc3ccc(F)c(C#C)c23)c(F)c2nc(OCC3(CN4CCN(CC5CCN(c6ccc7c(c6)CN(C6CCC(=O)NC6=O)C7=O)CC5)CC4)CC3)nc(N3CC4CCC(C3)N4CCC#N)c12 (stereo not shown) [Compound 95]", "assayedSystem": "KRAS(G12D) (Homo sapiens, UniProt P01116, G12D)", "observedProperty": "Dmax", "obsValue": "< 10%"}
{"compound": "C#Cc1c(F)ccc2cc(O)cc(-c3ncc4c(N5CC6CCC(C5)N6CC#N)nc(OCC5(CN6CCN(CC7CCN(c8ccc9c(c8)CN(C8CCC(=O)NC8=O)C9=O)CC7)CC6)CC5)nc4c3F)c12 (stereo not shown) [Compound 101]", "assayedSystem": "KRAS(G12D) (Homo sapiens, UniProt P01116, G12D)", "observedProperty": "Dmax", "obsValue": "> 50%"}
{"compound": "O=CO.[2H]C([2H])([2H])Oc1nc(-c2cc(O)cc3ccc(F)c(C#C)c23)c(F)c2nc(OCC3(CN4CCN(CC5CCN(c6ccc7c(c6)CN(C6CCC(=O)NC6=O)C7=O)CC5)CC4)CC3)nc(N3CC4CCC(C3)N4CCO)c12 (stereo not shown) [Compound 98]", "assayedSystem": "KRAS(G12D) (Homo sapiens, UniProt P01116, G12D)", "observedProperty": "Dmax", "obsValue": "> 50%"}
{"compound": "O=CO.[2H]C([2H])([2H])Oc1nc(-c2cc(O)cc3ccc(F)c(C#C)c23)c(F)c2nc(OCC3(CN4CCN(CC5CCN(c6ccc7c(c6)CN(C6CCC(=O)NC6=O)C7=O)CC5)CC4)CC3)nc(N3CC4CCC(C3)N4CC#N)c12 (stereo not shown) [Compound 94]", "assayedSystem": "KRAS(G12D) (Homo sapiens, UniProt P01116, G12D)", "observedProperty": "Dmax", "obsValue": "> 50%"}
